The entries below are paired with their reported TGI.
# Test system: MALME-3M melanoma
# Assay explanation: NCI tumour cell line growth inhibition, 48 h

• CC(Cc1ccc(Cl)cc1Cl)NO (stereo unspecified) = > 100 µM
• Cc1cc2c(C)c3cc(C)c(N)cc3nc2cc1N = 6.31 µM

Request the reported TGI associated with "NS(=O)(=O)c1ccc(NC(=O)c2cc([N+](=O)[O-])cc([N+](=O)[O-])c2)cc1"
57.2 µM

Input "CCOC(=O)c1c(O)[nH]c(=O)c(CC)c1C"
> 100 µM

Now the same for "O=C1NCC2(CCNCC2)N1c1ccccc1"
> 100 µM

Then what about the molecule COc1cc(C2C(Cl)C(=O)N2n2cnc3ccccc3c2=O)cc(OC)c1OC (stereo unspecified) ?
> 100 µM

* * *

# Tested on: OVCAR-3 ovarian
# Assay explanation: NCI tumour cell line growth inhibition, 48 h
Property: GI50

Take a look at these entries with their results.
- Cc1cc2c(C)c3cc(C)c(N)cc3nc2cc1N: 1.18 µM
- Nc1cccc2c1C(=O)N(C1CCC(=O)NC1=O)C2=O (stereo unspecified): > 100 µM

// next entry
Look up GI50 for this compound: "COc1cc2cc(Oc3ccc(NC(=O)Nc4ccc(F)c(C(F)(F)F)c4)cc3)c(C)nc2cc1OCCN1CCCCC1"
1.87 µM

* * *

# Test system: MDA-N
# Assay explanation: NCI tumour cell line growth inhibition, 48 h
Property: TGI (µM)
Numbers only; they are read as µM.

- O/N=c1/ccn(O)c2ccccc12: 17.5

API: value(readout= TGI, system= MDA-N, query= Nc1nc(Cl)c(C=O)c(NCC2(CO)CC(CCc3ccccc3)C2)n1 (stereo not given) )
18.1

* * *

# Test system: PC-3 prostate
# Assay explanation: NCI tumour cell line growth inhibition, 48 h
Quick reference for TGI among some compounds
Numbers only here, please. The scale is µM.

Solved entries:
* CC(O)c1c2c(cc3c1CC1(C3)Cc3cc4c(c(C(C)O)c3C1)CCC4)CCC2 (stereo not given) | 34.9
* Cc1cc(C)c(S(=O)(=O)N[C@@H](/C=C(\Br)CO)C(C)C)c(C)c1 | 48.9
* CCOC(=O)c1cccc(NC(=O)CBr)c1 | 2.94
* CCOC(=O)c1cnc(SCc2ccc(Cl)c(Cl)c2)nc1N1CC1 | 15.2
* COc1cc2cc(Oc3ccc(NC(=O)Nc4cccc(C(F)(F)F)c4)cc3)c(C)nc2cc1OCCN1CCCCC1 | 2.77

Now turn to the next compound.
Requested field: TGI. Item: CC[C@@H]1CN2CCC1C[C@@H]2C(O)c1ccnc2ccc(OCCN3CCN(CCOc4ccc5nccc(C(O)[C@@H]6C[C@@H]7CCN6C[C@@H]7CC)c5c4)CC3)cc12 (stereo not given in full)
30.3

* * *

# Tested on: HCC-2998 colon
# Assay explanation: NCI tumour cell line growth inhibition, 48 h
Please note: true (1) applies when TGI is 20 µM or greater, and false (0) applies otherwise.

• Cc1cc2nc(N3C(=O)/C(=C/c4cccc([N+](=O)[O-])c4)N=C3c3ccccc3)sc2cc1C = true (1)
• COc1ccc(/C=C2\CN(C(=O)CCN3CCC(=NO)CC3)C/C(=C\c3ccc(OC)cc3)C2=O)cc1 = false (0)
• CCOc1ccc2ccccc2c1NC1=NCCO1 = true (1)

Test whether the compound "C[C@H]1[C@H](OC(=O)CCC(=O)O)O[C@@H]2O[C@]3(C)CC[C@H]4[C@H](C)CC[C@@H]1[C@@]24OO3" records TGI of 20 µM or higher.
true (1)

Try this compound next: O=C1C2=C(c3ccccc31)C(c1cccc(Cl)c1)NC(=S)N2 (stereo not given)
true (1)

Now the compound "CC1=COC(=O)c2ccccc2N1"
true (1)

What do you have for CC(=O)OC1/C(=C/c2ccc([N+](=O)[O-])cc2)C[C@H]2[C@@H]3CC=C4C[C@@H](OC(C)=O)CC[C@]4(C)[C@H]3CC[C@]12C (stereo not given in full) ?
true (1)

For COc1cc2c(cc1OC)C(=O)C(Br)CC2 (stereo not given) then?
true (1)

Lookup CC(=O)Oc1ccc(N2C(=O)C3c4[nH]c5ccccc5c4C4CCC(C(C)(C)C)CC4C3C2=O)cc1 (stereo not given)
false (0)
